measurement.target: r5-HT2A (Rattus norvegicus, UniProt P14842)
Sequence (P14842 whole entry): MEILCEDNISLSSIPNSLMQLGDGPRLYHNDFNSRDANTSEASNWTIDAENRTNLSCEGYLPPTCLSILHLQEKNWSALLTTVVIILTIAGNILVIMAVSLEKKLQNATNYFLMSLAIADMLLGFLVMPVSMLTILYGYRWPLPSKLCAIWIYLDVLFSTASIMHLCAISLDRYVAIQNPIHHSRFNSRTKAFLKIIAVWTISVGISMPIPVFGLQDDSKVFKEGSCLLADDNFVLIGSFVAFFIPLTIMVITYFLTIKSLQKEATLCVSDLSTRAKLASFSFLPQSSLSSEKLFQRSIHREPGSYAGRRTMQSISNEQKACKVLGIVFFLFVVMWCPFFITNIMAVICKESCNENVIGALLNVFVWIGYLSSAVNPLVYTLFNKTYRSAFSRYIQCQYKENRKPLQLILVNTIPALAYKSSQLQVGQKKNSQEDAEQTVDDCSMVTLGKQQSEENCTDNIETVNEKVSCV
assay.summary: Ca2+ mobilization assay
Type: cell-based
settings: r5-HT2A pEC50 ± SEM, Ca2+ mobilization
pEC50: −log10 of the molar value.

| molecule | pEC50 |
| --- | --- |
| COc1cc(CCNCc2cccc(Br)c2)c(OC)cc1I [Compound 4d] | 7.80 |

* * *

measurement.target: 5-HT2A receptor (Homo sapiens, UniProt P28223)
Sequence (P28223 whole entry): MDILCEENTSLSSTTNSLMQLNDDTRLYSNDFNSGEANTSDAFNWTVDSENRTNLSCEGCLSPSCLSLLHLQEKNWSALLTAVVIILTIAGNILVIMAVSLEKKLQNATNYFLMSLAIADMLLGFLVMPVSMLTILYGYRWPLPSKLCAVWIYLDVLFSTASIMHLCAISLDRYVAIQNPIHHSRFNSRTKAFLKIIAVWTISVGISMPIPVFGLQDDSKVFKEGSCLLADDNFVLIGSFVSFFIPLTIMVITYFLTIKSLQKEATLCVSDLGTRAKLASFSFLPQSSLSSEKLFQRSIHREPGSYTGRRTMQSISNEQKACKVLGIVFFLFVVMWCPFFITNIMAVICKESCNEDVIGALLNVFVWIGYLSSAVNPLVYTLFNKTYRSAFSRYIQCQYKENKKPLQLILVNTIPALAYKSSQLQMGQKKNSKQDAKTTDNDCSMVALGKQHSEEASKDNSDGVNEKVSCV
assay.summary: h5-HT2A affinity, antagonist radioligand [3H]ketanserin
Format: binding
pKi: −log10 of the molar value.

| sample.smiles | pKi |
| --- | --- |
| COc1ccc2[nH]cc(CCNCc3cccc(Br)c3)c2c1 | 8.17 |
| COc1ccc2[nH]cc(CCNCc3cccc(I)c3)c2c1 | 8.46 |
| COc1cc(CCNCc2ccccc2Br)c(OC)cc1I | 8.63 |
| COc1cc(CCNCc2ccccc2OC)c(OC)cc1I | 9.28 |
| COc1cc(CCNCc2cccc(Br)c2)c(OC)cc1I | 8.40 |
| COc1ccc2[nH]cc(CCNCc3cccc(F)c3)c2c1 | 7.67 |
| COc1cccc(CNCCc2c[nH]c3ccc(OC)cc23)c1 | 8.11 |
| COc1cc(CCNCc2ccc(Br)cc2)c(OC)cc1I | 7.28 |
| COc1ccc2[nH]cc(CCNCc3ccccc3Br)c2c1 | 7.60 |
| COc1ccc(CNCCc2c[nH]c3ccc(OC)cc23)cc1 | 7.16 |
| COc1ccc2[nH]cc(CCNCc3cccc(C(F)(F)F)c3)c2c1 | 7.55 |
| COc1ccc(CNCCc2cc(OC)c(I)cc2OC)cc1 | 7.93 |
| COc1cccc(CNCCc2cc(OC)c(I)cc2OC)c1 | 8.81 |
| COc1ccc2[nH]cc(CCNCc3cccc(Cl)c3)c2c1 | 8.28 |
| COc1ccc2[nH]cc(CCNCc3ccc(Br)cc3)c2c1 | 6.37 |
| COc1ccc2[nH]cc(CCNCc3ccccc3OC)c2c1 | 7.78 |
| COc1ccc2[nH]cc(CCNCc3cccc(SC)c3)c2c1 | 8.05 |

* * *

measurement.target: human 5-HT2C receptor (Homo sapiens)
Sequence (P28335 33-458): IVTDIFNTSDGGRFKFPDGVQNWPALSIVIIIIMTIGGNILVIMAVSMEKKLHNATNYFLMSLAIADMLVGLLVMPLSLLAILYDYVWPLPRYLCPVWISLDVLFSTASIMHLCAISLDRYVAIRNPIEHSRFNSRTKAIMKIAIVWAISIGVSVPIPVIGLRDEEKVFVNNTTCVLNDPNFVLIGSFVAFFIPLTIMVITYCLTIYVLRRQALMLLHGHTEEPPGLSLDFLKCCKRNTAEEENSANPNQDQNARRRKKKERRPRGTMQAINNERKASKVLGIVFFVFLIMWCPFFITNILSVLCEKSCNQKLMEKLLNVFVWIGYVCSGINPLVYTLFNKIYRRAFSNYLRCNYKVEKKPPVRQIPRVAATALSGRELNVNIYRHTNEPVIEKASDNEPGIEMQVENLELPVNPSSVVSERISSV
assay.summary: h5-HT2C affinity, agonist radioligand [125I]DOI
Type: binding
settings: read-out: h5-HT2C Ki; [125I]DOI
endpoint.name: Ki (nM)

| sample.smiles | endpoint.name | obs.value |
| --- | --- | --- |
| COc1ccc2[nH]cc(CCNCc3cccc(C)c3)c2c1 | Ki | 3.39 |
